# Tested Target: GTPase HRas (Homo sapiens) (UniProt P01112)
# Sequence (P01112 whole entry, looked up): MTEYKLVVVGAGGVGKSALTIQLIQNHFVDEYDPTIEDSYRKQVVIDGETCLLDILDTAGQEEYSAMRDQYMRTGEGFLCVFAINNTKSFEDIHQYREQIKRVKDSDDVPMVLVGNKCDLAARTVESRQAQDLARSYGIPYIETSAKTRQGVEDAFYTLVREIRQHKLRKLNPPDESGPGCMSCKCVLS
# Assay Text: H-Ras wildtype GTP-binding inhibitors, SAR follow-up, biochemical, GST-H-Ras beads, Bodipy-FL-GTP, flow cytometry, multiplex, round 2 (AID 588630)

Compound: CC1(C)Cc2c(sc(NC(=S)NC(=O)c3cccs3)c2C(=O)O)CO1
EC50: 35 nM
--
Compound: Cc1cccc(C(=O)NC(=S)Nc2sc3c(c2C(=O)O)CC(C)(C)OC3)c1
EC50: 1390 nM
--
Compound: CC1(C)CCc2sc(NC(=S)NC(=O)c3ccccc3)c(C(=O)O)c2C1
EC50: 43 nM
--
Compound: CC1(C)Cc2c(sc(NC(=S)NC(=O)c3ccc(F)cc3)c2C(=O)O)CO1
EC50: 98 nM
--
Compound: CC1(C)Cc2c(sc(NC(=S)NC(=O)c3ccccc3F)c2C(=O)O)CO1
EC50: 359 nM
--
Compound: CC(C)(C)C1Cc2c(sc(NC(=S)NC(=O)c3ccccc3)c2C(=O)O)CO1 (stereo unspecified)
EC50: 140 nM
--
Compound: Cc1ccccc1C(=O)NC(=S)Nc1sc2c(c1C(=O)O)CC(C)(C)OC2
EC50: 444 nM
--
Compound: O=C(NC(=S)Nc1sc2c(c1C(=O)O)CC1(CCCC1)OC2)c1ccccc1
EC50: 31 nM
--
Compound: CC1(C)Cc2c(sc(NC(=S)NC(=O)c3ccco3)c2C(=O)O)CO1
EC50: 79 nM
--
Compound: CC1(C)Cc2c(sc(NC(=S)NC(=O)c3cccc(F)c3)c2C(=O)O)CO1
EC50: 436 nM
--
Compound: CC1(C)Cc2c(sc(NC(=S)NC(=O)c3ccc(Br)cc3)c2C(=O)O)CO1
EC50: 597 nM
--
Compound: COc1cccc(C(=O)NC(=S)Nc2sc3c(c2C(=O)O)CC(C)(C)OC3)c1
EC50: 275 nM
--
Compound: CC1(C)Cc2c(sc(NC(=S)NC(=O)c3ccccc3Br)c2C(=O)O)CO1
EC50: 1780 nM
--
Compound: CC1(C)Cc2c(sc(NC(=O)NC(=O)c3ccccc3)c2C(=O)O)CO1
EC50: 725 nM
--
Compound: Cc1ccc(C(=O)NC(=S)Nc2sc3c(c2C(=O)O)CC(C)(C)OC3)cc1
EC50: 193 nM
--
Compound: CC1Cc2c(sc(NC(=S)NC(=O)c3ccccc3)c2C(=O)O)CO1 (stereo unspecified)
EC50: 201 nM
--
Compound: CC1(C)Cc2c(sc(NC(=S)NC(=O)C3CCCCC3)c2C(=O)O)CO1
EC50: 625 nM
--
Compound: CCC1(C)Cc2c(sc(NC(=S)NC(=O)c3ccccc3)c2C(=O)O)CO1 (stereo unspecified)
EC50: 37 nM
--
Compound: COc1ccc(C(=O)NC(=S)Nc2sc3c(c2C(=O)O)CC(C)(C)OC3)cc1
EC50: 250 nM
--
Compound: CC1(C)Cc2c(sc(NC(=S)NC(=O)c3ccccc3)c2C(=O)O)CO1
EC50: 20 nM
--
Compound: COc1ccccc1C(=O)NC(=S)Nc1sc2c(c1C(=O)O)CC(C)(C)OC2
EC50: 1320 nM

Origin of the recorded values: PubChem BioAssay AID588630
